EXPERIMENTAL DETAILS: Fluorescence (λf, quantum yield)
Format: physicochemical
RUN PARAMETERS: ethanol, excitation 450 and 460 nm, reference acridine orange
For each record, write down the corresponding .PHI.f (fluorescence quantum yield).
One number for each entry.

Record excerpt, results attached:
INSERT INTO assay_data (smiles_code, assay_value) VALUES
  ('COc1ccc(C2=C3C(C)=CC(C)=[N+]3[B-](F)(F)n3c(C)cc(C)c32)cc1', 0.63),
  ('CCC1=C(C)C2=C(C3CCCCC3)c3c(C)c(CC)c(C)n3[B-](F)(F)[N+]2=C1C', 0.23),
  ('CCC1=C(C)C2=C(C#N)c3c(C)c(CC)c(C)n3[B-](F)(F)[N+]2=C1C', 0.55),
  ('CC1=[N+]2C(=Cc3c(-c4ccccc4)cc(C)n3[B-]2(F)F)C(c2ccccc2)=C1', 0.61),
  ('COC1=C(C)C(C)=[N+]2C1=C(C)c1c(OC)c(C)c(C)n1[B-]2(F)F', 0.84);

Provide .PHI.f (fluorescence quantum yield) for all items below, preserving their order.
1. CC1=C(C(C)C)C(C)=[N+]2C1=C(C)c1c(C)c(C(C)C)c(C)n1[B-]2(F)F
2. CCC1=C(c2ccccc2)C2=Cc3c(-c4ccccc4)c(CC)c(C)n3[B-](F)(F)[N+]2=C1C
3. CCC1=C(CC)C(C)=[N+]2C1=C(C)c1c(CC)c(CC)c(C)n1[B-]2(F)F
4. CC1=C(C)C(C)=[N+]2C1=Cc1c(C)c(C)c(C)n1[B-]2(F)F

[0.67, 0.60, 0.75, 0.56]

====

What λf was measured for each of the following?
EXPERIMENTAL DETAILS: Fluorescence (λf, quantum yield)
Assay type: physicochemical
RUN PARAMETERS: 2 × 10^-4 M in ethanol
Procedure: Instruments for spectroscopic measurements included: Perkin-Elmer 1600 FTIR, Varian Gernini 300 NMR, Hewlett-Packard 5985 (70 eV) GC-MS, Cary 17 (UV), and Perkin-Elmer LS-5B Luminescence spectrometer. […] Laser energy outputs were measured with an accuracy of ±5% by a Scientech 365 power and energy meter. Light absorption, luminescence, and laser activity properties for the dyes 7 are described in Table VI. Each recorded UV absorption was restricted to the highest wave length. […]
Give bare numbers, in nm.

Worked cases, λf given:
INSERT INTO results (smiles_code, assay_value) VALUES
  ('CCCCC1=C(C)C2=C(C)c3c(C)c(CCCC)c(C)n3[B-](F)(F)[N+]2=C1C', 550),
  ('CC1=[N+]2C(=Cc3c(-c4ccccc4)c(-c4ccccc4)c(C)n3[B-]2(F)F)C(c2ccccc2)=C1c1ccccc1', 590),
  ('CCC1=C(c2ccccc2)C2=Cc3c(-c4ccccc4)c(CC)c(C)n3[B-](F)(F)[N+]2=C1C', 564),
  ('CCC1=C(C)C2=C(C3CCCCC3)c3c(C)c(CC)c(C)n3[B-](F)(F)[N+]2=C1C', 526),
  ('CC1=C2C3=C(CCC3)C(C)=[N+]2[B-](F)(F)n2c(C)c3c(c21)CCC3', 535);

Would you be so kind as to report λf for each listed record?
1. CC1=[N+]2C(=Cc3c(-c4ccccc4)cc(C)n3[B-]2(F)F)C(c2ccccc2)=C1
2. CCC1=C(CC)C(C)=[N+]2C1=C(C)c1c(CC)c(CC)c(C)n1[B-]2(F)F
3. CCC1=C(C)C2=C(CC)c3c(C)c(CC)c(C)n3[B-](F)(F)[N+]2=C1C

1: 551; 2: 554; 3: 546

====

Please respond with reported log ε for every item in the list.
EXPERIMENTAL DETAILS: UV light absorption (λmax, log ε)
Format: physicochemical
RUN PARAMETERS: solvent as for λmax (ethanol except where noted)
One number for each entry.

Some solved cases for reference:
INSERT INTO assay_data (smiles_code, assay_value) VALUES
  ('CCOC(=O)C1=C(C)C2=C(C#N)c3c(C)c(C(=O)OCC)c(C)n3[B-](F)(F)[N+]2=C1C', 4.98),
  ('CC1=[N+]2C(=Cc3c(-c4ccccc4)cc(C)n3[B-]2(F)F)C(c2ccccc2)=C1', 4.92),
  ('CC1=C(C)C(C)=[N+]2C1=Cc1c(C)c(C)c(C)n1[B-]2(F)F', 4.84),
  ('CCC1=C(C)C2=C(COC(C)=O)c3c(C)c(CC)c(C)n3[B-](F)(F)[N+]2=C1C', 4.89),
  ('CC1=C(C(C)C)C(C)=[N+]2C1=C(C)c1c(C)c(C(C)C)c(C)n1[B-]2(F)F', 4.85);

// next entry
Give log ε for the following molecule: COc1ccc(C2=C3C(C)=CC(C)=[N+]3[B-](F)(F)n3c(C)cc(C)c32)cc1 4.86

====

For each entry below, report its λmax value.
EXPERIMENTAL DETAILS: UV light absorption (λmax, log ε)
Assay type: physicochemical
RUN PARAMETERS: 5 × 10^-6 M in ethanol
Numbers only, in nm.

As a guide, the following entries are already answered.
INSERT INTO measurements (compound, recorded_endpoint, output_unit, assay_value) VALUES
  ('CC1=C(C)C(C)=[N+]2C1=Cc1c(C)c(C)c(C)n1[B-]2(F)F [Compound 7z]', 'λmax', 'nm', 528),
  ('CC1=C(C(C)(C)C)C(C)=[N+]2C1=Cc1c(C)c(C(C)(C)C)c(C)n1[B-]2(F)F [Compound 7x]', 'λmax', 'nm', 527),
  ('CC1=C(C(C)(C)C)C(C)=[N+]2C1=C(C)c1c(C)c(C(C)(C)C)c(C)n1[B-]2(F)F [Compound 7g]', 'λmax', 'nm', 525);

Would you mind giving λmax for every compound in the list below?
1. CC1=C(C(C)C)C(C)=[N+]2C1=C(C)c1c(C)c(C(C)C)c(C)n1[B-]2(F)F [Compound 7f]
2. CCC1=C(C)C2=C(C3CCCCC3)c3c(C)c(CC)c(C)n3[B-](F)(F)[N+]2=C1C [Compound 7q]
3. COc1ccc(C2=C3C(C)=CC(C)=[N+]3[B-](F)(F)n3c(C)cc(C)c32)cc1 [Compound 7t]

516
516
497

Working through the 2 compounds below one at a time, give λmax for each.
1. CCC1=C(CC)C(C)=[N+]2C1=Cc1c(CC)c(CC)c(C)n1[B-]2(F)F [Compound 7y]
2. CCCCC1=C(C)C2=C(C)c3c(C)c(CCCC)c(C)n3[B-](F)(F)[N+]2=C1C [Compound 7e]

[529, 518]

====

EXPERIMENTAL DETAILS: Fluorescence (λf, quantum yield)
Format: physicochemical
RUN PARAMETERS: ethanol, excitation 450 and 460 nm, reference acridine orange
Lab note: compare .PHI.f (fluorescence quantum yield) with 0.7, writing T if less and F if equal or more.

The examples below pair each entry with its known result.
INSERT INTO measurements (smiles_code, category) VALUES
  ('CC1=C(c2ccccc2)C(C)=[N+]2C1=C(C)c1c(C)c(-c3ccccc3)c(C)n1[B-]2(F)F', 'T'),
  ('CC1=C(C(C)(C)C)C(C)=[N+]2C1=Cc1c(C)c(C(C)(C)C)c(C)n1[B-]2(F)F', 'F'),
  ('CCC1=C(C)C2=C(COC(C)=O)c3c(C)c(CC)c(C)n3[B-](F)(F)[N+]2=C1C', 'F'),
  ('CCC1=C(C)C2=C(c3ccc(N(C)C)cc3)c3c(C)c(CC)c(C)n3[B-](F)(F)[N+]2=C1C', 'T'),
  ('CCCC1=C(C)C2=C(C)c3c(C)c(CCC)c(C)n3[B-](F)(F)[N+]2=C1C', 'F');

Now take the following molecule into account.
Dear reviewer, please state whether CCC1=C(C)C2=C(CC)c3c(C)c(CC)c(C)n3[B-](F)(F)[N+]2=C1C has .PHI.f (fluorescence quantum yield) strictly beneath 0.7. F
